# inhibition at 1 µM listing for each entry below
target: FmlHLD (Escherichia coli, UniProt P77588); construct: 6xHis (C); made in house; host or cells: E. coli C600, periplasm, pTRC99a; experiment: biochemical; type: binding, E. coli; settings: read-out: PI1 (percent inhibition), galactoside at 1 μM; mean with standard error of the mean
Sequence (P77588 25-182): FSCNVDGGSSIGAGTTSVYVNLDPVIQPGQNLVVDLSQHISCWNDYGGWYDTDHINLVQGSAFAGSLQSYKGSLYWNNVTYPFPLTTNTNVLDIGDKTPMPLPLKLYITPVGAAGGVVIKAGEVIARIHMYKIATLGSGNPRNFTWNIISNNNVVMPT

COMPOUND	inhibition at 1 µM, %
Cc1c(C)c2ccc(O[C@@H]3O[C@H](CO)[C@H](O)[C@H](O)[C@H]3O)cc2oc1=O	10.2
COc1ccccc1O[C@@H]1O[C@H](CO)[C@H](O)[C@H](O)[C@H]1O [Compound 5β, 2-methoxyphenyl β-D-galactopyranoside]	10
OC[C@H]1O[C@@H](Oc2ccccc2Cl)[C@H](O)[C@@H](O)[C@H]1O [Compound 6β, 2-chlorophenyl β-D-galactopyranoside]	8
OC[C@H]1O[C@@H](Oc2ccccc2-c2ccccc2)[C@H](O)[C@@H](O)[C@H]1O	8.1
